Source listed as patent US12594349B2.

# Tested on: human PCSK9 locus
# method_summary: Secreted PCSK9 by ELISA in Huh7 cells transfected with mRNA and gRNA
# Type: cell-based
# experimental_parameters: Huh7 cells, LTRP5-ADD-ZIM3 mRNA, 50 ng mRNA:25 ng gRNA, day 6, relative to non-targeting gRNA control
property_name: Percent reduction in PCSK9 secretion (%)
Give the quantity in %, number only.

-- ask Form field: reported Percent reduction in PCSK9 secretion of TG-06-171 (guide CAGUACGUUCCAGGCAUUCA; listed as RNA, chemistry not given here)
-- reply 36.3

-- ask Quick one: Percent reduction in PCSK9 secretion for TG-06-121 (guide GGAAGGGCUGUCGAUACUGG; listed as RNA, chemistry not given here) ?
-- reply 65.57

-- ask Can you share its Percent reduction in PCSK9 secretion? I mean this substance: TG-06-148 (guide GCCGGGCCCACCUUUUCAGU; listed as RNA, chemistry not given here)
-- reply 13.15

-- ask Which Percent reduction in PCSK9 secretion value is on record for TG-06-170 (guide UCGGCCUCCGGGUCUCCCAA; listed as RNA, chemistry not given here) ?
-- reply 21.98
